measurement.protocol: Stability testing of capsules at 25° C./60% RH in water impermeable blister pack
Assay type: physicochemical
settings: 0.5 mg capsules of Example 28, 12 months
measured.attribute: Decomposition products (% w/w), relative to the amount of tasquinimod in capsule
Give the quantity in % w/w, number only.

INSERT INTO results (mol, endpoint_result) VALUES
  ('COc1cccc2c1c(O)cc(=O)n2C', 0.13);

// next item, Decomposition products (% w/w), relative to the amount of tasquinimod in capsule requested
Given CNc1ccc(C(F)(F)F)cc1 , state its recorded Decomposition products (% w/w), relative to the amount of tasquinimod in capsule.
0.07

====

measurement.protocol: Stability testing of capsules at 25° C./60% RH in water impermeable blister pack
Type: physicochemical
settings: 1.0 mg capsules of Example 29, 9 months
measured.attribute: Decomposition products (% w/w), relative to the amount of tasquinimod in capsule

INSERT INTO results (mol, endpoint_result) VALUES
  ('COc1cccc2c1c(O)c(C(=O)O)c(=O)n2C', '0.06 % w/w'),
  ('COc1cccc2c1c(O)c(Cc1c(O)c3c(OC)cccc3n(C)c1=O)c(=O)n2C', '<0.05 % w/w'),
  ('COc1cccc2c1c(O)cc(=O)n2C', '<0.05 % w/w');

Given CNc1ccc(C(F)(F)F)cc1 , state its recorded Decomposition products (% w/w), relative to the amount of tasquinimod in capsule.
<0.05 % w/w
